study system: NEK2 (human) (UniProt P51955)
Sequence (P51955 whole entry, looked up): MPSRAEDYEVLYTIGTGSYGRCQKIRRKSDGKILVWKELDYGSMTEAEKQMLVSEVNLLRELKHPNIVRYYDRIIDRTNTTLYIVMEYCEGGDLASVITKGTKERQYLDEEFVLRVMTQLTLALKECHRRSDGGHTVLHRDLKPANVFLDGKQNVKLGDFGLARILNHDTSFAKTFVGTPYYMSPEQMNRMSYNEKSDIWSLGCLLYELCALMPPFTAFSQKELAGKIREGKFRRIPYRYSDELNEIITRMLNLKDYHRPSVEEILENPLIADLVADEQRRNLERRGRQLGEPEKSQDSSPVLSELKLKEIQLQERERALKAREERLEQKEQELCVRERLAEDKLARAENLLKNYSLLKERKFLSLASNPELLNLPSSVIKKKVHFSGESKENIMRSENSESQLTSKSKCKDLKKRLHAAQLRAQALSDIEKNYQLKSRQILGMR
procedure details: radiometric filter-binding kinase assay, Kinase HotSpot
particulars: compound 0.5 µM; ATP 10 µM

smiles	scale unit	residual activity
c1ccc(-c2cnc(Nc3ccc(OCCN4CCCC4)cc3)s2)cc1	%	90.6
O=c1[nH]c2ccccc2n1C1CCN(Cc2ccc(-c3nc4cc5[nH]cnc5cc4nc3-c3ccccc3)cc2)CC1	%	96.8
Cn1cc(/C=C2\C(=O)Nc3ccc(S(N)(=O)=O)cc32)c2ccccc21	%	89.1
COc1cccc(-c2cc(=O)c3ccccc3o2)c1N	%	86.1
FC(F)(F)c1ccc(/C=C/c2nc(COc3ccc(CCCCn4ccnn4)cc3)co2)cc1	%	96.2
COc1cc2c(N3CCN(C(=O)Nc4ccc(OC(C)C)cc4)CC3)ncnc2cc1OCCCN1CCCCC1	%	101
O=C1NC(=O)c2c1c1c3ccccc3[nH]c1c1[nH]c3cc(Br)ccc3c21	%	92
COc1cc2c(Nc3ccc(Br)cc3F)ncnc2cc1OCC1CCN(C)CC1	%	103
N#Cc1c(NC(=O)c2cccc3ccccc23)sc2c1CCCC2	%	88.1
